Provenance of the data: paper PMC6656775

Biological target: T1, ETR1^1–157, purified recombinant (A. thaliana, UniProt P49333 1-157)
T1 construct: In detergent (FosCholine-16); also called purified ETR1
T1 sequence (looked up): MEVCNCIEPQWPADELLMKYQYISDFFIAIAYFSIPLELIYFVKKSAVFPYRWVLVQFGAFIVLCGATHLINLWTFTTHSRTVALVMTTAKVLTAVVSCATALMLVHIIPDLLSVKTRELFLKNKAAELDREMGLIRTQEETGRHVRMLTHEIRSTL
Test: MST; AlexaFluor488-labelled ATX1 (75 nM), CCH (100 nM) or CCHΔ (50 nM) in 50 mM HEPES, 300 mM NaCl, pH 7.5, 0.015% FosCholine-16, 0.05% Tween20; ETR1^1–157 titrated 7.5 µM to 0.2 nM; triplicates; apparent dissociation constants
Settings: both partners purified
The following binders are listed with their measured Kd values.

BINDER	UNIT_SPEC	Kd
CCHΔ, deletion mutant of CCH lacking the C-terminal extension, purified recombinant (domain or fragment, AlexaFluor488-NHS label where it was the labelled partner (with ETR1^1–157 and ETR1^306–738); unlabelled where titrated) MAQTVVLKVGMSCQGCVGAVNRVLGKMEGVESFDIDIKEQKVTVKGNVEPEAVFQTVSKTGKKTSYWPVEAEAEPK	nM	376
ATX1, purified recombinant (natural protein, A. thaliana, UniProt Q94BT9 1-76, looked up, AlexaFluor488-NHS label where it was the labelled partner (with ETR1^1–157 and ETR1^306–738); unlabelled where titrated, soluble copper chaperone ATX1, Arabidopsis thaliana; Preloaded with Cu(I) in the copper transfer assay; also called Cu(I)-ATX1; source: E. coli BL21 (DE3) or C43 (DE3), pETEV16b, purified (HisTrap, TEV, Superdex200)) MSQTVVLRVAMTCEGCVGAVKRVLGKMEGVESFDVDIKEQKVTVKGNVQPDAVLQTVTKTGKKTAFWEAEGETAKA	nM	313
CCH, full-length, purified recombinant (natural protein, A. thaliana, UniProt O82089 1-121, looked up, AlexaFluor488-NHS label where it was the labelled partner (with ETR1^1–157 and ETR1^306–738); unlabelled where titrated, soluble copper chaperone CCH, Arabidopsis thaliana, full-length; Preloaded with Cu(I) in the copper transfer assay; also called CCH wildtype; full-length CCH; source: E. coli BL21 (DE3) or C43 (DE3), pETEV16b, purified (HisTrap, TEV, Superdex200)) MAQTVVLKVGMSCQGCVGAVNRVLGKMEGVESFDIDIKEQKVTVKGNVEPEAVFQTVSKTGKKTSYWPVEAEAEPKAEADPKVETVTETKTEAETKTEAKVDAKADVEPKAAEAETKPSQV	nM	526
